- System: lymphocytic Leukemia P-388
- Assay method text: Anti-tumour activity against lymphocytic Leukemia P-388 in mice
- Assay type: in vivo, mouse, female of CDF strain
- Condition description: Mus musculus, P388, ip, dose resulting in the highest survival ratio; i.p. 24 h after implantation, 30 days; read-out: OPD
Quantity kind: ED (optimal dose, highest survival) (mg/kg)
Output spec: scalar in mg/kg, unitless text.

Form field ED (optimal dose, highest survival), entry CO[C@@]12[C@H](COC(N)=O)C3=C(C(=O)C(C)=C(NCCSC(=O)NC(C)(C)C)C3=O)N1C[C@@H]1N[C@@H]12 : 25

Form field ED (optimal dose, highest survival), entry CO[C@@]12[C@H](COC(N)=O)C3=C(C(=O)C(C)=C(NCCSC(=O)N4CCC[C@H]4C(=O)NCc4ccccc4)C3=O)N1C[C@@H]1N[C@@H]12 : 50

Form field ED (optimal dose, highest survival), entry COC(=O)[C@H]1CCCN1C(=O)SCCNC1=C(C)C(=O)C2=C(C1=O)[C@@H](COC(N)=O)[C@@]1(OC)[C@H]3N[C@H]3CN21 : 37.5

Form field ED (optimal dose, highest survival), entry CO[C@@]12[C@H](COC(N)=O)C3=C(C(=O)C(C)=C(NCCSC(=O)NCc4ccccc4)C3=O)N1C[C@@H]1N[C@@H]12 : 25

Form field ED (optimal dose, highest survival), entry CNC(=O)SCCNC1=C(C)C(=O)C2=C(C1=O)[C@@H](COC(N)=O)[C@@]1(OC)[C@H]3N[C@H]3CN21 : 25

Form field ED (optimal dose, highest survival), entry CO[C@@]12[C@H](COC(N)=O)C3=C(C(=O)C(C)=C(NCCSC(=O)NC(COCc4ccccc4)C(C)C)C3=O)N1C[C@@H]1N[C@@H]12 (stereo partly shown) : 7.5

Form field ED (optimal dose, highest survival), entry COC(=O)[C@@H](NC(=O)SCCNC1=C(C)C(=O)C2=C(C1=O)[C@@H](COC(N)=O)[C@@]1(OC)[C@H]3N[C@H]3CN21)C(C)C : 12.5

Form field ED (optimal dose, highest survival), entry CCC(C)NC(=O)SCCNC1=C(C)C(=O)C2=C(C1=O)[C@@H](COC(N)=O)[C@@]1(OC)[C@H]3N[C@H]3CN21 (stereo partly shown) : 25

Form field ED (optimal dose, highest survival), entry CO[C@@]12[C@H](COC(N)=O)C3=C(C(=O)C(C)=C(NCCSC(=O)NCC(C)C)C3=O)N1C[C@@H]1N[C@@H]12 : 25

Form field ED (optimal dose, highest survival), entry COC(=O)[C@@H]1CCCN1C(=O)SCCNC1=C(C)C(=O)C2=C(C1=O)[C@@H](COC(N)=O)[C@@]1(OC)[C@H]3N[C@H]3CN21 : 100

Form field ED (optimal dose, highest survival), entry CCNC(=O)SCCNC1=C(C)C(=O)C2=C(C1=O)[C@@H](COC(N)=O)[C@@]1(OC)[C@H]3N[C@H]3CN21 : 25

Form field ED (optimal dose, highest survival), entry CO[C@@]12[C@H](COC(N)=O)C3=C(C(=O)C(C)=C(NCCSC(=S)NC(c4ccccc4)c4ccccc4)C3=O)N1C[C@@H]1N[C@@H]12 : 12.5

Form field ED (optimal dose, highest survival), entry CO[C@@]12[C@H](COC(N)=O)C3=C(C(=O)C(C)=C(NCCSC(=O)NC4CCN(Cc5ccccc5)CC4)C3=O)N1C[C@@H]1N[C@@H]12 : 12.5

Form field ED (optimal dose, highest survival), entry CO[C@@]12[C@H](COC(N)=O)C3=C(C(=O)C(C)=C(NCCSC(=O)NC(C)C)C3=O)N1C[C@@H]1N[C@@H]12 : 12.5

Form field ED (optimal dose, highest survival), entry CCNC(=S)SCCNC1=C(C)C(=O)C2=C(C1=O)[C@@H](COC(N)=O)[C@@]1(OC)[C@H]3N[C@H]3CN21 : 25

Form field ED (optimal dose, highest survival), entry CCC(CC)NC(=O)SCCNC1=C(C)C(=O)C2=C(C1=O)[C@@H](COC(N)=O)[C@@]1(OC)[C@H]3N[C@H]3CN21 : 25

Form field ED (optimal dose, highest survival), entry CCN(CC)C(=O)SCCNC1=C(C)C(=O)C2=C(C1=O)[C@@H](COC(N)=O)[C@@]1(OC)[C@H]3N[C@H]3CN21 : 25

Form field ED (optimal dose, highest survival), entry CCCNC(=O)SCCNC1=C(C)C(=O)C2=C(C1=O)[C@@H](COC(N)=O)[C@@]1(OC)[C@H]3N[C@H]3CN21 : 25

Form field ED (optimal dose, highest survival), entry CO[C@@]12[C@H](COC(N)=O)C3=C(C(=O)C(C)=C(NCCSC(=O)NC4CCCCC4)C3=O)N1C[C@@H]1N[C@@H]12 : 25

Just for reference, patent US4863935A is where these values come from.
